tested on: T47D; assay: Antiproliferative activity against human T47D cells assessed as reduction in cell viability incubated for 72 hrs by WST1 assay; type: functional, cell-based; details: Homo sapiens, T47D, 72 h; read-out: IC50
quantity kind: pIC50
Conceptually, pIC50 converts a concentration in mol/L into minus its log10.

Example entries begin here.
{"smiles entry": "C=C(C)[C@@H]1CC[C@]2(COC(C)=O)CC[C@]3(C)[C@H](CC[C@@H]4[C@@]5(C)CC[C@H](OC6=C(Cl)C(=O)c7cccnc7C6=O)C(C)(C)[C@@H]5CC[C@]43C)[C@@H]12", "target under test": "T47D", "pIC50": 4.06}
{"smiles entry": "C=C(COC1=C(Cl)C(=O)c2cccnc2C1=O)[C@@H]1CC[C@]2(COC(C)=O)CC[C@]3(C)[C@H](CC[C@@H]4[C@@]5(C)CC[C@H](OC(C)=O)C(C)(C)[C@@H]5CC[C@]43C)[C@@H]12", "target under test": "T47D", "pIC50": 4.89}
{"smiles entry": "C=C(C)[C@@H]1CC[C@]2(CO)CC[C@]3(C)[C@H](CC[C@@H]4[C@@]5(C)CC[C@H](O)C(C)(C)[C@@H]5CC[C@]43C)[C@@H]12", "target under test": "T47D", "pIC50": 4.68}
{"smiles entry": "C=C(COC1=C(Cl)C(=O)c2ccc(C)nc2C1=O)[C@@H]1CC[C@]2(COC(C)=O)CC[C@]3(C)[C@H](CC[C@@H]4[C@@]5(C)CC[C@H](OC(C)=O)C(C)(C)[C@@H]5CC[C@]43C)[C@@H]12", "target under test": "T47D", "pIC50": 4.99}
{"smiles entry": "C=C(C)[C@@H]1CC[C@]2(COC3=C(Cl)C(=O)c4ccccc4C3=O)CC[C@]3(C)[C@H](CC[C@@H]4[C@@]5(C)CC[C@H](O)C(C)(C)[C@@H]5CC[C@]43C)[C@@H]12", "target under test": "T47D", "pIC50": 5.83}

### Prompt Report pIC50 for `C#CC(=O)OC[C@]12CC[C@@H](C(=C)C)[C@@H]1[C@H]1CC[C@@H]3[C@@]4(C)CC[C@H](OC5=C(Cl)C(=O)c6ccccc6C5=O)C(C)(C)[C@@H]4CC[C@@]3(C)[C@]1(C)CC2` please.
### Response 4.02

### Prompt And then `C=C(C)[C@@H]1CC[C@]2(COC(C)=O)CC[C@]3(C)[C@H](CC[C@@H]4[C@@]5(C)CC[C@H](OC6=C(Cl)C(=O)c7ccccc7C6=O)C(C)(C)[C@@H]5CC[C@]43C)[C@@H]12` , what is it?
### Response 4.91
